test: Analysis of active substance: preservative concentration before and after storage in VI-containing polymer solution; assay type: physicochemical; conditions: in Polymer P5 (HP56); before storage
Assignment: determine reported active-substance concentration, 0 d, RT for the given compounds.
Please reply with the bare figure in ppm and do not write the unit itself.

Which active-substance concentration, 0 d, RT reading was recorded for the compound CCCCCCCCn1sc(Cl)c(Cl)c1=O ?
300

Would you mind telling me what active-substance concentration, 0 d, RT value was observed for CCCCCCCCn1sccc1=O ?
250

Report active-substance concentration, 0 d, RT for Cn1sccc1=O please.
250

May I ask what active-substance concentration, 0 d, RT has been recorded for CCCCNC(=O)OCC#CI [Iodopropynyl butyl carbamate, iodopropynyl butyl carbamate] ?
250

Value lookup for active-substance concentration, 0 d, RT; key = CCCCCCCCCC[N+](C)(C)CCCCCCCCCC.[Cl-] [DDAC, didecyldimethylammonium chloride]
950

Query: active-substance concentration, 0 d, RT; subject: Cn1sc(Cl)cc1=O
150

Item O=c1[nH]sc2ccccc12 has what recorded active-substance concentration, 0 d, RT?
150

What active-substance concentration, 0 d, RT value was documented for this compound, CCCCCCCCCCCCCCCC[N+](C)(C)Cc1ccccc1.[Cl-] [Polymer 16-BAC, cetylalkonium chloride] ?
1000

---

assay: Physical stability; visual assessment (color, turbidity, phase separation); type: physicochemical; parameters: key: ++: no discernible change with respect to color, turbidity or phase separation; +: marginal change in color number, somewhat increased Tyndall effect but no turbidity; 0: easily discernible increase in color number and moderate turbidity−no phase separation; −: turbidity and change in color number readily discernible by visual assessment; −−: strong color change with strong turbidity and incipient phase separation; conditions: Polymer P8 with stabilizer
VALUE_TYPE: Physical stability, 60 d 40° C.*

Reference set, count: 5
CCCCCCCCCC[N+](C)(C)CCCCCCCCCC.[Cl-] [DDAC, didecyldimethylammonium chloride]
++
CCCCCCCCCCCCCCCC[n+]1ccccc1 [CPC, cetylpyridinium chloride]
+
CCCCCCCCn1sc(Cl)c(Cl)c1=O
−−
O=c1[nH]sc2ccccc12
−−
CCCCNC(=O)OCC#CI [Iodopropynyl butyl carbamate, iodopropynyl butyl carbamate]
−

Item Cn1sccc1=O has what recorded Physical stability, 60 d 40° C.*?
−

// returns reported Physical stability, 60 d 40° C.* for input Cn1sc(Cl)cc1=O
−−

Given CCCCCCCCCCCCCCCC[N+](C)(C)Cc1ccccc1.[Cl-] [Polymer 16-BAC, cetylalkonium chloride] , state its recorded Physical stability, 60 d 40° C.*.
+

Physical stability, 60 d 40° C.* lookup needed for CCCCCCCCn1sccc1=O , thanks.
−−

---

experiment: Physical stability; visual assessment (color, turbidity, phase separation); format: physicochemical; set-up: key: ++: no discernible change with respect to color, turbidity or phase separation; +: marginal change in color number, somewhat increased Tyndall effect but no turbidity; 0: easily discernible increase in color number and moderate turbidity−no phase separation; −: turbidity and change in color number readily discernible by visual assessment; −−: strong color change with strong turbidity and incipient phase separation; settings: Polymer P5 (HP56) with stabilizer
VALUE_TYPE: Physical stability, 60 d 40° C.*

Completed entries (count: 8):
Cn1sccc1=O
−
CCCCCCCCCCCCCCCC[n+]1ccccc1 [CPC, cetylpyridinium chloride]
+
CCCCCCCCCCCCCCCC[N+](C)(C)Cc1ccccc1.[Cl-] [Polymer 16-BAC, cetylalkonium chloride]
+
CCCCNC(=O)OCC#CI [Iodopropynyl butyl carbamate, iodopropynyl butyl carbamate]
−
CCCCCCCCn1sc(Cl)c(Cl)c1=O
−−
O=c1[nH]sc2ccccc12
−
Cn1sc(Cl)cc1=O
−−
CCCCCCCCn1sccc1=O
−−

Given the entry CCCCCCCCCC[N+](C)(C)CCCCCCCCCC.[Cl-] [DDAC, didecyldimethylammonium chloride] , report its measured Physical stability, 60 d 40° C.*.
++

---

assay: Iodine color number according to DIN 6162:2014-09; format: physicochemical; conditions: Polymer P9 with stabilizer; start
VALUE_TYPE: Iodine color number, start
Reply with the value as a number alone.

Need Iodine color number, start, item Cn1sccc1=O
3.9

Which value of Iodine color number, start has been reported for CCCCCCCCn1sc(Cl)c(Cl)c1=O in the records?
3.9

I have this compound here, CCCCCCCCCCCCCCCC[N+](C)(C)Cc1ccccc1.[Cl-] [Polymer 16-BAC, cetylalkonium chloride] , and I need its recorded Iodine color number, start.
3.7

What does the record list as Iodine color number, start for Cn1sc(Cl)cc1=O ?
3.9

For the compound shown here, CCCCCCCCCC[N+](C)(C)CCCCCCCCCC.[Cl-] [DDAC, didecyldimethylammonium chloride] , give the reported Iodine color number, start.
3.8

Can you look up the measured Iodine color number, start of O=c1[nH]sc2ccccc12 for me?
4.0

Please report the recorded Iodine color number, start for CCCCNC(=O)OCC#CI [Iodopropynyl butyl carbamate, iodopropynyl butyl carbamate] .
3.9

Quick check: Iodine color number, start of CCCCCCCCn1sccc1=O ?
4.0

---

assay: Physical stability; visual assessment (color, turbidity, phase separation); assay type: physicochemical; design: key: ++: no discernible change with respect to color, turbidity or phase separation; +: marginal change in color number, somewhat increased Tyndall effect but no turbidity; 0: easily discernible increase in color number and moderate turbidity−no phase separation; −: turbidity and change in color number readily discernible by visual assessment; −−: strong color change with strong turbidity and incipient phase separation; settings: Polymer P7 with stabilizer
VALUE_TYPE: Physical stability, 60 d 40° C.*

Example entries begin here.
O=c1[nH]sc2ccccc12 [BIT, 1,2-benzisothiazolin-3-one]
−
CCCCCCCCn1sc(Cl)c(Cl)c1=O [DCOIT, dichloroctylisothiazolinone]
−−
Cn1sc(Cl)cc1=O [CMIT, 5-chloro-N-methylisothiazolin-3-one]
−
CCCCNC(=O)OCC#CI [Iodopropynyl butyl carbamate, iodopropynyl butyl carbamate]
−
CCCCCCCCCCCCCCCC[N+](C)(C)Cc1ccccc1.[Cl-] [Polymer 16-BAC, cetylalkonium chloride]
+

Which Physical stability, 60 d 40° C.* value belongs to CCCCCCCCn1sccc1=O [OIT, octylisothiazolinone] ?
−−

Item under review: CCCCCCCCCCCCCCCC[n+]1ccccc1 [CPC, cetylpyridinium chloride] . Reported Physical stability, 60 d 40° C.*?
+

Report Physical stability, 60 d 40° C.* for CCCCCCCCCC[N+](C)(C)CCCCCCCCCC.[Cl-] [DDAC, didecyldimethylammonium chloride] please.
++

Find the recorded Physical stability, 60 d 40° C.* belonging to Cn1sccc1=O [MIT, methyl-4-isothiazolin-3-one] and report it.
−

---

tested on: Bacteria: Escherichia coli, Staphylococcus aureus, Pseudomonas aeruginosa, Pseudomonas putida, Burkholderia cepacia, Alcaligenes faecalis; test: Preservation test with periodic inoculation, bacteria assessment; format: cell-based; conditions: Polymer P9; sample stored 60 d at 40° C.
VALUE_TYPE: 60 d 40° C., bact. assess., 4th inoculation

Worked set:
Cn1sc(Cl)cc1=O
++
CCCCNC(=O)OCC#CI [Iodopropynyl butyl carbamate, iodopropynyl butyl carbamate]
+
CCCCCCCCn1sc(Cl)c(Cl)c1=O
++
Cn1sccc1=O
+
O=c1[nH]sc2ccccc12
++

// next entry
Look at this compound and give its reported 60 d 40° C., bact. assess., 4th inoculation. CCCCCCCCn1sccc1=O
++

---

test: Analysis of active substance: preservative concentration before and after storage in VI-containing polymer solution; assay type: physicochemical; details: in Polymer P6; storage 28 d at 40° C.
Kindly return T if reported active-substance concentration, 28 d, 40° C. is no lower than 90 ppm; return F if it is lower.

Can CCCCCCCCCC[N+](C)(C)CCCCCCCCCC.[Cl-] [DDAC, didecyldimethylammonium chloride] be said to have active-substance concentration, 28 d, 40° C. at or above 90 ppm?
T

Is reported active-substance concentration, 28 d, 40° C. greater than or equal to 90 ppm here: Cn1sc(Cl)cc1=O
F

Check if active-substance concentration, 28 d, 40° C. >= 90 ppm (inclusive). Item: CCCCNC(=O)OCC#CI [Iodopropynyl butyl carbamate, iodopropynyl butyl carbamate]
T

Hello, I need to know if Cn1sccc1=O has measured active-substance concentration, 28 d, 40° C. not below 90 ppm. Thanks!
T

Check the entry O=c1[nH]sc2ccccc12 : does active-substance concentration, 28 d, 40° C. equal or exceed 90 ppm?
F

Check the entry CCCCCCCCn1sc(Cl)c(Cl)c1=O : does active-substance concentration, 28 d, 40° C. equal or exceed 90 ppm?
T

I'd appreciate it if you could say whether CCCCCCCCCCCCCCCC[N+](C)(C)Cc1ccccc1.[Cl-] [Polymer 16-BAC, cetylalkonium chloride] has active-substance concentration, 28 d, 40° C. at least equal to 90 ppm.
T

---

assay: Analysis of active substance: preservative concentration before and after storage in VI-containing polymer solution; format: physicochemical; details: in Polymer P4; storage 14 d at 40° C.
VALUE_TYPE: active-substance concentration, 14 d, 40° C.

Given the entry CCCCNC(=O)OCC#CI [Iodopropynyl butyl carbamate, iodopropynyl butyl carbamate] , report its measured active-substance concentration, 14 d, 40° C..
212 ppm

Would you mind telling me what active-substance concentration, 14 d, 40° C. value was observed for Cn1sc(Cl)cc1=O [CMIT, 5-chloro-N-methylisothiazolin-3-one] ?
111 ppm

Report active-substance concentration, 14 d, 40° C. for O=c1[nH]sc2ccccc12 [BIT, 1,2-benzisothiazolin-3-one] please.
117 ppm

If you can, please state the reported active-substance concentration, 14 d, 40° C. value of CCCCCCCCn1sccc1=O [OIT, octylisothiazolinone] .
165 ppm

Fill blank: measured active-substance concentration, 14 d, 40° C. of the molecule CCCCCCCCCCCCCCCC[N+](C)(C)Cc1ccccc1.[Cl-] [Polymer 16-BAC, cetylalkonium chloride] is ____.
964 ppm

Which measured active-substance concentration, 14 d, 40° C. value corresponds to Cn1sccc1=O [MIT, methyl-4-isothiazolin-3-one] ?
164 ppm

Given the molecule CCCCCCCCCC[N+](C)(C)CCCCCCCCCC.[Cl-] [DDAC, didecyldimethylammonium chloride] , what is its reported active-substance concentration, 14 d, 40° C.?
950 ppm

Recorded active-substance concentration, 14 d, 40° C. of CCCCCCCCn1sc(Cl)c(Cl)c1=O [DCOIT, dichloroctylisothiazolinone] , please.
246 ppm
